Tested target: SSTR4 (Homo sapiens (Human), UniProt P31391)
Sequence (P31391 whole entry): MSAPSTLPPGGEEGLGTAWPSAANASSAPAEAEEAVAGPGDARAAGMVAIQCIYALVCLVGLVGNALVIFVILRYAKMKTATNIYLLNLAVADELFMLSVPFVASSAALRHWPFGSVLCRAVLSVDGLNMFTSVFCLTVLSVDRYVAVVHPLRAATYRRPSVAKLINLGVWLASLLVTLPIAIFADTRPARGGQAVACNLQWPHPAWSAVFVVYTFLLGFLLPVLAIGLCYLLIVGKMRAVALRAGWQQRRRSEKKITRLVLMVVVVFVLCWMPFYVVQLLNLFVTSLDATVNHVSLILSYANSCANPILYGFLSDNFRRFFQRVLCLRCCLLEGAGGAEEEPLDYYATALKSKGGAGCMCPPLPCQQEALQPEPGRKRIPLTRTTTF
Experiment summary: Inhibition of forskolin stimulated cAMP in cells overexpressing SSTR4
Type: cell-based
Assay setup: inhibition of forskolin stimulated cAMP in CHO-K1 cells overexpressing SSTR4; read-out: SSTR4 Activity pEC50 (converted)
Each entry falls into one class according to its EC50; the ranges are band 1 = under 30 nM, band 2 = from 30 nM up to 80 nM, band 3 = 80 nM and over

Challenge: Entry C[C@@H]1C[C@H](NC(=O)C2(CN(C)c3cccc(Cl)n3)CC2)CCN1C belongs to which category?
Response given: band 2

Others:
Challenge: Which EC50 band matches C[C@H]1CNCC[C@@H]1NC(=O)C(F)(F)Oc1ccc(F)cc1 ?
Response given: band 1

Challenge: Kindly state the category for this compound: C[C@@H]1CN(C)CC[C@H]1NC(=O)C1(Cc2cccc(F)c2)CC1 (relative stereo)
Response given: band 2

Challenge: Which bin should I file C[C@H]1CNCC[C@@H]1NC(=O)C(F)(F)Oc1ccccc1Cl under?
Response given: band 1

Challenge: Bin? O=C(N[C@H]1CCNC[C@@H]1F)C1(Cc2ccc(Cl)cc2)CC1
Response given: band 1

Challenge: Dear colleague, I would appreciate it if you could identify the bin for C[C@@H]1C[C@H](NC(=O)C(F)(F)Oc2ccccc2)CCN1 and reply at your convenience.
Response given: band 2

---

Tested target: SSTR4 (Homo sapiens (Human), UniProt P31391)
Experiment summary: Inhibition of forskolin stimulated cAMP in cells overexpressing SSTR4
Assay type: cell-based
Assay setup: inhibition of forskolin stimulated cAMP in CHO-K1 cells overexpressing SSTR4; read-out: SSTR4 Activity pEC50 (converted)
Excerpt: Inhibition of Forskolin Stimulated cAMP in Cells Overexpressing SSTR4 This cell-based assay measures the ability of compounds to inhibit forskolin stimulated cAMP in CHO-K1 cells overexpressing SSTR4. CHO-K1 cells overexpressing SSTR4 (CHO-SSTR4) are purchased from DiscoveRx (product code 95-0059C2). […] Cellular cAMP levels are detected with a HTRF LANCE Ultra cAMP kit (Perkin Elmer, catalog number TRF0264). […]
Attribute measured: log10(EC50) (log10 of the value in nM)
Friendly reminder: values = log10 of EC50, unit nM.

Entry N#Cc1ccccc1OC(F)(F)C(=O)NC1CCNCC1 [Example 32] , log10(EC50) reported as 1.70

Please fill in: log10(EC50) reported for C[C@@H]1CN(C)CC[C@H]1NC(=O)C1(Cc2ccc(F)cc2)CC1 (racemic) [Example 10] = 1.85

GET /value?item= C[C@@H]1C[C@@H](NC(=O)C(F)(F)Oc2ccccc2)CCN1 [Example 52] &field=log10(EC50) returns 2.23

// field: log10(EC50); key: O=C(N[C@H]1CCNC[C@@H]1F)C1(Oc2ccccc2C2CC2)CC1 [Example 60] ; value = 2.24

Entry CC[C@@H]1CN(C)CC[C@H]1NC(=O)C1(Oc2ccccc2Cl)CC1 (relative stereo) [Example 7] — recorded log10(EC50) = 2.25

# log10(EC50) of CN1CCC(NC(=O)C(F)(F)Oc2ccccc2)CC1 [Example 28] = 2.29

For COc1cccc(CC2(C(=O)N[C@H]3CCNC[C@@H]3F)CC2)c1 [Example 46] the compound record lists log10(EC50) as 1.07

# log10(EC50) of CC[C@@H]1CN(C)CC[C@H]1NC(=O)C1(Cc2cccc(C)c2)CC1 (relative stereo) [Example 21] = 1.63

Noted for C[C@H]1CNCC[C@@H]1NC(=O)C(F)(F)Cc1ccccc1 [Example 26] : its log10(EC50) reads 1.17

Given item Cc1cccc(CC2(C(=O)NC3CN(C)CC3c3ccccc3)CC2)c1 (stereo not drawn) [Example 2] , the value recorded as its log10(EC50) is 1.54

New cases:
Lab book: log10(EC50) of C[C@H]1CN(C)CC[C@@H]1NC(=O)C1(Cc2cccc(Cl)c2)CC1 [Example 36] noted as 1.37

Per the record, C[C@H]1CN(C)CC[C@@H]1NC(=O)C(F)(F)Oc1ccccc1 [Example 40] has log10(EC50) of 2.07

Per the records, this compound ( CC(Oc1ccccc1Cl)C(=O)N[C@@H]1CCN(C)[C@H](C)C1 (stereo partly drawn) [Example 67] ) has log10(EC50) equal to 2.12

Recorded result, Cc1ccccc1CC1(C(=O)N[C@@H]2CCN(C)C[C@H]2C)CC1 (racemic) [Example 12] , log10(EC50): 1.76

---

Tested target: SSTR4 (Homo sapiens (Human))
Experiment summary: Inhibition of forskolin stimulated cAMP in cells overexpressing SSTR4
Assay type: cell-based
Assay setup: inhibition of forskolin stimulated cAMP in CHO-K1 cells overexpressing SSTR4; read-out: SSTR4 Activity pEC50 (converted)
Attribute measured: EC50 (nM)
Express the result in nM but write the number alone.

Answered examples (3):
For C[C@H]1CNCC[C@@H]1NC(=O)C(F)(F)Oc1ccccc1F the compound record lists EC50 as 21.4

Data point: C[C@H]1C[C@@H](NC(=O)C(F)(F)Oc2ccccc2)CCN1 (relative stereo) [Example 50] ; EC50 = 57.5

Item: CC1CC(NC(=O)C2(Oc3ccccc3Cl)CC2)CCN1C (stereo not shown) | EC50: 182

Consider the record given below.
// field: EC50; key: Cc1cccc(CC2(C(=O)NC3CN(C)CC3C)CC2)c1 (stereo not shown) ; value = 31.6
